System: IGF-1 induced AKT phosphorylation in A549 cells
Test: IGF-1 induced AKT phosphorylation assay (A549 cell assay)
Format: cell-based
Details: Homo sapiens, A549, read-out: average IC50 in the A549 cell assay
pIC50: −log10 of the molar value.
attribute.measured: pIC50

1. COc1c(OCCCN2CCOCC2)ccc2c1N=C(NC(=O)c1cnc(N)nc1)N1CCN=C21 [Example 13]; > 7.00

###

Molecular target: PI3Kβ (Homo sapiens, UniProt P42338)
Construct: His6 (N)
Sequence (P42338 109-1070): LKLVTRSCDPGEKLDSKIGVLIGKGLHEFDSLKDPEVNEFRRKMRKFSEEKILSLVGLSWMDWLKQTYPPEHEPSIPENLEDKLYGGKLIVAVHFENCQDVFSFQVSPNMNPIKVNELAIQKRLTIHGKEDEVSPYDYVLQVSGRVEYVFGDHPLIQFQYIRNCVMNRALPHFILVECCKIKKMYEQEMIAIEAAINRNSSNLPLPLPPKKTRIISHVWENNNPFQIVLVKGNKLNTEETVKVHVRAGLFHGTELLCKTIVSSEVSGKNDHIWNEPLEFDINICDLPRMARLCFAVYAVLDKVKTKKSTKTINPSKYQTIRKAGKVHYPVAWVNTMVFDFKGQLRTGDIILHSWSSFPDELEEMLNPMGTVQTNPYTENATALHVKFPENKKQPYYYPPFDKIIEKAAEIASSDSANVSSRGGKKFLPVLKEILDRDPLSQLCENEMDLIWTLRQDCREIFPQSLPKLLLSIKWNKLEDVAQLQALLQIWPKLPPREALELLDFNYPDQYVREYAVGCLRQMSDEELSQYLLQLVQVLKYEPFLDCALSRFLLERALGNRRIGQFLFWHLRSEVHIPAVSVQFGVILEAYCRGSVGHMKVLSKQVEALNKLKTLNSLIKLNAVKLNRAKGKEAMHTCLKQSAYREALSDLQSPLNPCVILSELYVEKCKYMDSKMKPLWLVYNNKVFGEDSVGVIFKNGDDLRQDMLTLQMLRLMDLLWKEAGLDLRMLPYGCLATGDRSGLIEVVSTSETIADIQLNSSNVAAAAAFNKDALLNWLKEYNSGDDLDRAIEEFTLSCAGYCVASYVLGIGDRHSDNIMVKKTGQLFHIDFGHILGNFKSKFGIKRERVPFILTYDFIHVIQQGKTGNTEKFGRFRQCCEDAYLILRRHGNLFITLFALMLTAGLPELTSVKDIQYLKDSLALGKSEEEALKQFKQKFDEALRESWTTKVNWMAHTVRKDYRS
Assay: Isozyme selectivity test: kinase assay of PI3Kβ (p110β assay)
Conditions: recombinant truncated p110β, 7.5 ng protein/well
pIC50: −log10 of the molar value.
attribute.measured: pIC50

1) COc1c(OCCCN2CCOCC2)ccc2c1N=C(NC(=O)c1csc(C)n1)N1CCN=C21; 7.00 to 8.00
2) COc1c(OCCCN2C[C@@H](C)O[C@@H](C)C2)ccc2c1N=C(NC(=O)c1cnc(N)nc1)N1CCN=C21; > 8.00
3) COc1c(OCCCN2CCOCC2)ccc2c1N=C(NC(=O)c1cn(C)cn1)N1CCN=C21; 7.00 to 8.00

###

Molecular target: PI3Kα (Homo sapiens, UniProt P42336)
Construct: His6 (N)
Sequence (P42336 109-1068): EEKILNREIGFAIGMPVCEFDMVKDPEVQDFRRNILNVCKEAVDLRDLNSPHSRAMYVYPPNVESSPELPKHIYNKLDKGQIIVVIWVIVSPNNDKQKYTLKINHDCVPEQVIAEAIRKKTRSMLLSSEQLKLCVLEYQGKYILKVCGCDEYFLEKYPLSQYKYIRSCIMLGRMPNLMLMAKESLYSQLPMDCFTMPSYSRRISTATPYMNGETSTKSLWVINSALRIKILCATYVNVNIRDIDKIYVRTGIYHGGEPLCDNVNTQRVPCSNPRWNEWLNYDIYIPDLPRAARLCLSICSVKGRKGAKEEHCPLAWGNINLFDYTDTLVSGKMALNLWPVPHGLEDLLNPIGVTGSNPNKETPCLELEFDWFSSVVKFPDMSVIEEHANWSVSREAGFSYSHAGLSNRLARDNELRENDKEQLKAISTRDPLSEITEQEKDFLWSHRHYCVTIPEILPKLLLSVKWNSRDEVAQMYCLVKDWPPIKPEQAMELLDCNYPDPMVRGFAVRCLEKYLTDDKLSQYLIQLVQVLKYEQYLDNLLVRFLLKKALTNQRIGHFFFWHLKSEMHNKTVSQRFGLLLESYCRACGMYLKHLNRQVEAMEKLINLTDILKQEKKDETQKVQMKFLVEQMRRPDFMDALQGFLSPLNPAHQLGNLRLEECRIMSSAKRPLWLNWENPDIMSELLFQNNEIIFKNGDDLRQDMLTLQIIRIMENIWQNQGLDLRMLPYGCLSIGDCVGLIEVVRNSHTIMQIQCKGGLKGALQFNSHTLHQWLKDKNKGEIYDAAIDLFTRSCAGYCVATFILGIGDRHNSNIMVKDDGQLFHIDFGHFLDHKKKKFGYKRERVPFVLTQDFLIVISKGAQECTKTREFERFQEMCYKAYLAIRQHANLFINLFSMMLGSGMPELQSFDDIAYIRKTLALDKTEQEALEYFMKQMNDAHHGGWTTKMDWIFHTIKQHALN
Experiment: Solid-phase lipid kinase assay of PI3Kα (p110α assay)
Settings: recombinant truncated human p110α, 10 μM ATP
pIC50: −log10 of the molar value. Structures can show the parent of a compound that is named as a salt.
attribute.measured: pIC50

1) COc1c(OCCCN2CCOCC2)ccc2c1N=C(NC(=O)c1ccnc(N)n1)N1CCN=C21 [Example 25]; 7.00 to 8.00
2) COc1c(OCCCN2CCOCC2)ccc2c1N=C(NC(=O)c1cnc(N3CCN(C)CC3)nc1)N1CCN=C21 [Example 48]; < 7.00
3) COc1c(OCCCN2C[C@@H](C)O[C@@H](C)C2)ccc2c1N=C(NC(=O)c1ccc(C)nc1)N1CCN=C21 [Example 28]; > 8.00
4) COc1c(OCCCN2CCOCC2)ccc2c1N=C(NC(=O)c1cccs1)N1CCN=C21 [Example 93]; 7.00 to 8.00
5) CCN1CCOC(COc2ccc3c(c2OC)N=C(NC(=O)c2cccnc2)N2CCN=C32)C1 (stereo not shown) [Example 21]; 7.00 to 8.00
6) COc1c(OCCCN2CCOCC2)ccc2c1N=C(NC(=O)c1ccc(NC3CCCC3)nc1)N1CCN=C21 [Example 15]; 7.00 to 8.00
7) COc1c(OCCCN2CCOCC2)ccc2c1N=C(NC(=O)c1ccc(N3CCNCC3)nc1)N1CCN=C21 [Example 50, hydrochloride]; 7.00 to 8.00
8) COc1c(OCCCN2CCOCC2)ccc2c1N=C(NC(=O)c1ccc(C(F)(F)F)nc1)N1CCN=C21 [Example 62]; 7.00 to 8.00
9) COc1c(OCCC2CN(CC3CCC3)CCO2)ccc2c1N=C(NC(=O)c1cccnc1)N1CCN=C21 (stereo not shown) [Example 19]; > 8.00
10) COCCN1CCOC(CCOc2ccc3c(c2OC)N=C(NC(=O)c2cccnc2)N2CCN=C32)C1 (stereo not shown) [Example 20]; > 8.00
11) COc1c(OCCCN2C[C@@H](C)O[C@@H](C)C2)ccc2c1N=C(NC(=O)c1ccc(NC(C)=O)nc1)N1CCN=C21 [Example 29]; > 8.00
12) COc1c(OCCCN2CCOCC2)ccc2c1N=C(NC(=O)c1ccncn1)N1CCN=C21 [Example 24]; < 7.00
13) COc1c(OCCCN2CCOCC2)ccc2c1N=C(NC(=O)c1csc(C)n1)N1CCN=C21 [Example 98]; 7.00 to 8.00
14) COc1c(OCCCN2CCOCC2)ccc2c1N=C(NC(=O)c1ccc(CCN3CCCC3)nc1)N1CCN=C21 [Example 14]; 7.00 to 8.00
15) COc1c(OCCCN2C[C@@H](C)O[C@@H](C)C2)ccc2c1N=C(NC(=O)c1ccc(N)nc1)N1CCN=C21 [Example 39]; > 8.00
16) COc1c(OCCCN2CCOCC2)ccc2c1N=C(NC(=O)c1ccc(OCC(F)(F)F)nc1)N1CCN=C21 [Example 61]; 7.00 to 8.00
17) COc1c(OCCCN2C[C@@H](C)O[C@@H](C)C2)ccc2c1N=C(NC(=O)c1cnc(N)nc1)N1CCN=C21 [Example 38]; > 8.00
18) COc1c(OCCCN2CCOCC2)ccc2c1N=C(NC(=O)c1cnc(N3CCOCC3)nc1)N1CCN=C21 [Example 49]; 7.00 to 8.00
19) COc1c(OCCCN2CCOCC2)ccc2c1N=C(NC(=O)c1ccc(NCc3ccc(F)cc3)nc1)N1CCN=C21 [Example 53]; 7.00 to 8.00
20) COc1c(OCCCN2CCOCC2)ccc2c1N=C(NC(=O)c1ccc(-n3cccc3)nc1)N1CCN=C21 [Example 56]; 7.00 to 8.00
21) COc1c(OCCCN2CCOCC2)ccc2c1N=C(NC(=O)c1cnc(N3CCCC3)nc1)N1CCN=C21 [Example 47]; 7.00 to 8.00
22) COc1c(OCCCN(C)C)ccc2c1N=C(NC(=O)c1ccc[n+]([O-])c1)N1CCN=C21 [Example 12]; < 7.00
23) COc1c(OCCCN2CCOCC2)ccc2c1N=C(NC(=O)c1ccc(NC(=O)C(C)(C)C)nc1)N1CCN=C21 [Example 59]; < 7.00
24) COCCCNc1ncc(C(=O)NC2=Nc3c(ccc(OCCCN4CCOCC4)c3OC)C3=NCCN23)cn1 [Example 41]; 7.00 to 8.00
25) COc1c(OCCCN2C[C@@H](C)O[C@@H](C)C2)ccc2c1N=C(NC(=O)c1cncnc1)N1CCN=C21 [Example 27]; > 8.00
